The following compounds are shown together with reported IC50 values.
# System: CQ-resistant P. falciparum FcB1 strain
# protocol.description: In vitro growth inhibition of P. falciparum FcB1 ([3H]-hypoxanthine incorporation)
# Format: cell-based, Plasmodium falciparum
# condition.notes: Plasmodium falciparum, FCB1, CQ-resistant FcB1; mean +/− standard deviation of independent experiments (at least four in Tables 1-2, at least three in Tables 3-4)

{"columns": ["compound", "IC50 [nM]"],
 "data": [
  ["CCCCOC(=O)c1cn(C2CC2)c2cc(N3CCN(C(=O)CCC(=O)O[C@@H]4O[C@@H]5O[C@@]6(C)CCC7[C@H](C)CCC([C@H]4C)[C@]75OO6)CC3)c(F)cc2c1=O (stereo partly drawn) [Compound 22]", 3.5],
  ["C[C@@H]1CCC2[C@@H](C)[C@H](OC(=O)CCC(=O)N3CCN(c4cc5c(cc4F)c(=O)c(C(=O)O)cn5C4CC4)CC3)O[C@@H]3O[C@@]4(C)CCC1[C@@]23OO4 (stereo partly drawn) [Compound 20]", 4],
  ["C[C@@H]1CCC2[C@@H](C)[C@H](OC(=O)CCC(=O)N3CCN(c4cc5c(cc4F)c(=O)c(C(=O)N4CCN(c6ccnc7cc(Cl)ccc67)CC4)cn5C4CC4)CC3)O[C@@H]3O[C@@]4(C)CCC1[C@@]23OO4 (stereo partly drawn) [Compound 28]", 4.9],
  ["C[C@@H]1CCC2[C@@H](C)[C@@H](CC(=O)N3CCN(c4cc5c(cc4F)c(=O)c(C(=O)O)cn5C4CC4)CC3)O[C@@H]3O[C@@]4(C)CCC1[C@@]23OO4 (stereo partly drawn) [Compound 12]", 14.8],
  ["CCCCOC(=O)c1cn(C2CC2)c2cc(N3CCN(C(=O)C[C@H]4O[C@@H]5O[C@@]6(C)CCC7[C@H](C)CCC([C@H]4C)[C@]75OO6)CC3)c(F)cc2c1=O (stereo partly drawn) [Compound 16]", 7.5],
  ["CCOC(=O)c1cn(C2CC2)c2cc(N3CCN(C(=O)CCC(=O)O[C@@H]4O[C@@H]5O[C@@]6(C)CCC7[C@H](C)CCC([C@H]4C)[C@]75OO6)CC3)c(F)cc2c1=O (stereo partly drawn) [Compound 21]", 5.4],
  ["CCCCOC(=O)c1cn(CC)c2cc(N3CCN(C(=O)CCC(=O)O[C@@H]4O[C@@H]5O[C@@]6(C)CCC7[C@H](C)CCC([C@H]4C)[C@]75OO6)CC3)c(F)cc2c1=O (stereo partly drawn) [Compound 24]", 1.9],
  ["CCn1cc(C(=O)N2CCN(c3ccnc4cc(Cl)ccc34)CC2)c(=O)c2cc(F)c(N3CCN(C(=O)CCC(=O)O[C@@H]4O[C@@H]5O[C@@]6(C)CCC7[C@H](C)CCC([C@H]4C)[C@]75OO6)CC3)cc21 (stereo partly drawn) [Compound 29]", 5],
  ["C[C@@H]1CCC2[C@@H](C)[C@@H](CC(=O)N3CCN(c4cc5c(cc4F)c(=O)c(C(=O)N4CCN(c6ccnc7cc(Cl)ccc67)CC4)cn5C4CC4)CC3)O[C@@H]3O[C@@]4(C)CCC1[C@@]23OO4 (stereo partly drawn) [Compound 25]", 7.5],
  ["C[C@H]1[C@H](OC(=O)CCC(=O)O)O[C@@H]2O[C@@]3(C)CC[C@H]4[C@H](C)CC[C@@H]1[C@@]24OO3 [AS (46), artesunate, reference compound]", 18.5],
  ["CCn1cc(C(=O)N2CCN(c3ccnc4cc(Cl)ccc34)CC2)c(=O)c2cc(F)c(N3CCN(C(=O)C[C@H]4O[C@@H]5O[C@@]6(C)CCC7[C@H](C)CCC([C@H]4C)[C@]75OO6)CC3)cc21 (stereo partly drawn) [Compound 27]", 6.6],
  ["CCOC(=O)c1cn(CC)c2cc(N3CCN(C(=O)C[C@H]4O[C@@H]5O[C@@]6(C)CCC7[C@H](C)CCC([C@H]4C)[C@]75OO6)CC3)c(F)cc2c1=O (stereo partly drawn) [Compound 18]", 25.5]
]}
